Molecular target: SXR (Homo sapiens)
Sequence (O75469 whole entry): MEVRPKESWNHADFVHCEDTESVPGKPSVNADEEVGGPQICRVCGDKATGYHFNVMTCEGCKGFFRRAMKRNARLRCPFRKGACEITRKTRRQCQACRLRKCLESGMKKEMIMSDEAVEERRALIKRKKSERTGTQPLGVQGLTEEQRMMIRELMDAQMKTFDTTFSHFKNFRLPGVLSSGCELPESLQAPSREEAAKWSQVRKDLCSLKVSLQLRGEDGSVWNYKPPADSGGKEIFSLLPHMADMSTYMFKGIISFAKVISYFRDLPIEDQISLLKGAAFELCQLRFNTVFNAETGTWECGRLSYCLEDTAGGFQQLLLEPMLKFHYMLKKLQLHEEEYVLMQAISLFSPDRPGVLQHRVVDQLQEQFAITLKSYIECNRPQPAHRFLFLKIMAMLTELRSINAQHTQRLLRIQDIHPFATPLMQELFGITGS
Test: Microplate thermal shift assay (Thermofluor) of SXR with ligands, co-activator peptide SRC1-NR2 and co-repressor peptide NCoR-1
Conditions: read-out: ΔΔTm NcoR1-NR2
Listed here: items and their measured ΔTm at 100 µM.
Could you write the number and then its unit?

As a guide, the following entries are already answered.
CC(=O)O[C@H]1C(=O)[C@@]2(C)[C@H]([C@H](OC(=O)c3ccccc3)[C@]3(O)C[C@H](OC(=O)[C@H](O)[C@@H](NC(=O)c4ccccc4)c4ccccc4)C(C)=C1C3(C)C)[C@]1(OC(C)=O)CO[C@@H]1C[C@@H]2O :: 4.7 °C
CC[C@H](C)C(=O)O[C@H]1C[C@@H](C)C=C2C=C[C@H](C)[C@H](CC[C@@H]3C[C@@H](O)CC(=O)O3)[C@H]21 :: 1.2 °C
C[C@]12C[C@H](O)[C@H]3[C@@H](CCC4=CC(=O)CC[C@@]43C)[C@@H]1CC[C@@H]2C(=O)CO :: 0.5 °C

*Q* Supply recorded ΔTm at 100 µM for C[C@]12CCC(=O)C=C1CC[C@@H]1[C@@H]2[C@@H](O)C[C@@]2(C)[C@H]1CC[C@]2(O)C(=O)CO [Hydrocortisone] here.
*A* 3.7 °C

These entries and their values trace back to patent US20060099643A1.
